Source: patent US20100266504A1

# Experimental Target: serotonin 5-HT2C receptor (isoform type VSV, stably expressing CHO cell) (Homo sapiens, UniProt P28335, I156V/I160V/N158S)
# Sequence (P28335 33-458 I156V/N158S/I160V limits assumed): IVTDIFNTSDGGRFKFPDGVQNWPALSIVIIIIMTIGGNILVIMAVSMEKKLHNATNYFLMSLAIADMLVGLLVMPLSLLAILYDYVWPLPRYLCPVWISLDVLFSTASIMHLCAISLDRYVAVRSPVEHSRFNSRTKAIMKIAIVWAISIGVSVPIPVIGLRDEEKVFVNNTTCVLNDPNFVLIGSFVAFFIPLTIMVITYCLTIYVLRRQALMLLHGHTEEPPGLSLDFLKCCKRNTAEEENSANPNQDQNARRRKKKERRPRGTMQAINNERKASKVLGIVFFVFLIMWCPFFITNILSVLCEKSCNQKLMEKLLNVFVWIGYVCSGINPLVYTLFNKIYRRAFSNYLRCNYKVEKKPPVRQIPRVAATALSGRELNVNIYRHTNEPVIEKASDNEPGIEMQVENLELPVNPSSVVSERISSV
# Test Description: cell-based
# Condition Details: CHO, read-out: ratio relative to maximum response by 5-HT (1 μM)
Counter-ions that a name gives are not always drawn.
For each record, write down the corresponding Emax.
Give bare numbers, in %.

Examples with their reported Emax follow.
Compound	Emax (%)
CC(C)N(C)c1ccc2c(n1)CCNC2 [Example 17, hydrochloride]	100
CCN(C)c1ccc2c(n1)CCNC2 [Example 15, hydrochloride]	102
CC1CNCc2ccc(N(C)C(C)C)nc21 (single isomer, unassigned) [Example 79, hydrochloride]	106
C[C@@H]1COCCN1c1ccc2c(n1)CCNC2 [Example 7, hydrochloride]	95.6
CC1CNCc2ccc(N(C)C(C)C)nc21 (stereo not shown) [Example 53, hydrochloride]	91
Fc1ccc(-c2ccc3c(n2)CCNC3)cc1 [Example 27, dihydrochloride]	91.7
CC1CCNCc2ccc(N3CCOCC3)nc21 (stereo not shown) [Example 2, hydrochloride]	92.8
c1cc2c(nc1N1CCOCC1)CCNC2 [Example 6]	100

State the recorded Emax for every item in the following list.
1. CSc1ccc(-c2ccc3c(n2)CCNC3)cc1 [Example 28, dihydrochloride]
2. CC(C)Oc1ccc2c(n1)CCNC2 [Example 30, hydrochloride]

102
97.8
